# Tested on: DU-145 prostate
# procedure_details: NCI tumour cell line growth inhibition, 48 h
Please provide measured TGI for the entries that follow.
Answers are plain numbers, in µM.

{"columns": ["compound", "unit_text", "TGI"],
 "data": [
  ["Fc1ccc(Nc2ccnc(N3CCN(c4ccnc5cc(Cl)ccc45)CC3)n2)cc1", "µM", 55.1]
]}

Quick request: TGI for each listed item, please.
1. Cc1ccc(S(=O)(=O)N(CC(O)COc2ccccc2)c2ccccc2Cl)cc1 (stereo unspecified)
2. COc1ccc(C2CC(=O)Nc3c2c(C)nn3-c2nc3ccccc3[nH]2)cc1OC (stereo unspecified)
3. O=C(/C=C/c1cc2ccccc2[nH]c1=O)c1ccc(O)cc1

Reply:
[57.5, 27.1, 14.3]

----------
# System: SK-MEL-2 melanoma
# procedure_details: NCI tumour cell line growth inhibition, 48 h
Exercise: for every item that follows, state its recorded GI50.

Below, each entry is followed by its recorded GI50 result.
{"columns": ["molecule", "GI50"],
 "data": [
  ["CCCCCCCC(=O)[O-].N.N.N.N.N.[Co+3].[O-][Cl+3]([O-])([O-])[O-]", "> 100 µM"],
  ["c1ccc(OCC[P+](c2ccccc2)(c2ccccc2)c2ccccc2)cc1", "1.06 µM"],
  ["COc1cc(-c2cc(-c3ccc(Nc4nc(Nc5ccc(Cl)cc5)nc(Nc5ccc(Cl)cc5)n4)cc3)no2)cc(OC)c1OC", "5.04 µM"],
  ["O=C(/C=C/c1cc2ccccc2[nH]c1=O)c1ccc(O)cc1", "4.13 µM"]
]}

Task item: Fill in: GI50 of CC(C)Cc1cc(-c2cccn2C)c(C#N)c(=O)[nH]1 is ___
Reply: > 100 µM

----------
# System: M14 melanoma
# procedure_details: NCI tumour cell line growth inhibition, 48 h
Assignment: determine reported TGI for the given compounds.
Numbers only, in µM.

Examples with answers:
{"columns": ["compound", "assay_readout", "val"],
 "data": [
  ["N#Cc1ccccc1C#C/C=C\\C#Cc1ccccn1", "TGI", 28.8],
  ["COc1cc2ccnc3c2c(c1OC)N(C)C=C3", "TGI", 68.8]
]}

Could you tell me TGI for each of these compounds? They are listed below.
1. O=C(NNC(=O)/C(=C/c1cccc([N+](=O)[O-])c1)NC(=O)c1ccccc1)Nc1ccc(Cl)cc1
2. C[C@H]1O[C@@H](O[C@H]2[C@@H](O)C[C@H](O[C@H]3[C@@H](O)C[C@H](O[C@H]4CC[C@]5(C)C6CC[C@]7(C)[C@@H](C8=CC(=O)OC8)CC[C@]7(O)C6CC[C@@H]5C4)O[C@@H]3C)O[C@@H]2C)C[C@H](O)[C@@H]1O (stereo not given in full)
3. CCCCCCCN(CCCCCCC)C(=N)c1ccc(OC)c2ccccc12
4. COc1cc2c(cc1OC)C/C(=N\O)c1cc(OC)c(OC)cc1/C=C\2
5. CCN(Cc1c(F)cccc1C(F)(F)F)c1ccc(CO)c(Cl)c1
6. C#Cc1cccc(NC(=O)C2CCCCN2C(=O)CCl)c1 (stereo not given)
7. Fc1ccc(Nc2ccnc(N3CCN(c4ccnc5cc(Cl)ccc45)CC3)n2)cc1

Reply:
1: 26.9; 2: 0.0986; 3: 2.95; 4: 27.2; 5: 33.4; 6: 74.9; 7: 4.25

Task item: Quick one: TGI of COc1ccc(C2CC(=O)Nc3c2c(C)nn3-c2nc3ccccc3[nH]2)cc1OC (stereo not given) ?
Reply: 20.4

Origin of the recorded values: PubChem BioAssay (NCI)
